# MEASUREMENT TARGET: JAK1 (Homo sapiens)
# Construct: screened for activity against several kinases in Jurkat cells; endogenous in cells; host or cells: Jurkat cell lysate
# Sequence (P23458 whole entry): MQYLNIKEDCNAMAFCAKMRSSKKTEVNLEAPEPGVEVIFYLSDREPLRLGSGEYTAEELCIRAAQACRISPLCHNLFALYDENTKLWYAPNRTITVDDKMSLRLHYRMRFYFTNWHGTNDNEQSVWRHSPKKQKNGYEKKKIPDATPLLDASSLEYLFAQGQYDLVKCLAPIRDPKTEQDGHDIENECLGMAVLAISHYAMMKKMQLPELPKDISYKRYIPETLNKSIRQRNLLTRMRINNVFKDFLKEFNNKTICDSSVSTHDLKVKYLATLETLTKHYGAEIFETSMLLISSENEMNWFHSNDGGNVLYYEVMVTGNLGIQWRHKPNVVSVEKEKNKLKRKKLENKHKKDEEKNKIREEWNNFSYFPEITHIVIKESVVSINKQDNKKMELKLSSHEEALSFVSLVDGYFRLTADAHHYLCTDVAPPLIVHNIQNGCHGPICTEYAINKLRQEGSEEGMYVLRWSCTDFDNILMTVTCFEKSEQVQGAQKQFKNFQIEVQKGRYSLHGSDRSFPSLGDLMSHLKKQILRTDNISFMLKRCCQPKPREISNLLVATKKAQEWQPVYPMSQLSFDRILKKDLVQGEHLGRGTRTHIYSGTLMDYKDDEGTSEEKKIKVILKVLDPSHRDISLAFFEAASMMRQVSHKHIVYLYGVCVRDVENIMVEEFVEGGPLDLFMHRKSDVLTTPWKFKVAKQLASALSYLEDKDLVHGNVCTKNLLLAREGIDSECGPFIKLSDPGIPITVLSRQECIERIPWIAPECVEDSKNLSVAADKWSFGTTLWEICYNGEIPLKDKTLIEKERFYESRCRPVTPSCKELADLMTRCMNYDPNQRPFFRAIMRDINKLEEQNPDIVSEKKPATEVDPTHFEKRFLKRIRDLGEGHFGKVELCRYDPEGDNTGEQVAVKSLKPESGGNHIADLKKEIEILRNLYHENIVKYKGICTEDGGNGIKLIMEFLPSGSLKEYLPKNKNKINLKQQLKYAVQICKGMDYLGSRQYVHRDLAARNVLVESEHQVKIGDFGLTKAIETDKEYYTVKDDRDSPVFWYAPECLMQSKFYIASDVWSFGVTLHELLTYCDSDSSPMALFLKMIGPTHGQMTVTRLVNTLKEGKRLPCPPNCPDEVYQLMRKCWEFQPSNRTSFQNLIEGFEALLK
# ASSAY NAME: Probe-based (AX9989) kinase profiling in Jurkat lysate: JAK1
# Format: binding
# STATED CONDITIONS: screening concentration 1 μM; read-out: JAK1 Inhibition % at indicated screening concentration
MEASURED PARAMETER: inhibition at 1 µM

Below: 5 compounds and their reported inhibition at 1 µM.
{"columns": ["COMPOUND", "MEASUREMENT TARGET", "VAL"],
 "data": [
  ["CC(=O)N1CCN(C(=O)c2ccc(Nc3cc4c(cn3)N(C)C(=O)c3ccccc3N4C)c(F)c2)CC1 [Compound T71]", "JAK1 (Homo sapiens)", "≤ 35%"],
  ["CCOc1cc(C(=O)N2CCN(C3CCN(C)CC3)CC2)ccc1Nc1cc2c(cn1)N(C)C(=O)c1ccccc1N2C1CC1 [Compound T79]", "JAK1 (Homo sapiens)", "≤ 35%"],
  ["CCOc1cc(C(=O)N2CC[C@@H](N3CCN(C)CC3)C2)ccc1Nc1cc2c(cn1)N(C)C(=O)c1ccccc1N2C [Compound T20]", "JAK1 (Homo sapiens)", "≤ 35%"],
  ["CN1CCC(N2CCN(C(=O)c3ccc(Nc4cc5c(cn4)N(C)C(=O)c4ccccc4N5C)c(F)c3)CC2)CC1 [Compound T70]", "JAK1 (Homo sapiens)", "≤ 35%"],
  ["[2H]C([2H])([2H])N1C(=O)c2ccccc2N(C([2H])([2H])[2H])c2cc(Nc3ccc(C(=O)N4CCN(C(C)=O)CC4)cc3OCC)ncc21 [Compound T77]", "JAK1 (Homo sapiens)", "≤ 35%"]
]}

Notebook: CCOc1cc(C(=O)N2CCCNCC2)ccc1Nc1cc2c(cn1)N(C)C(=O)c1scnc1N2C [Compound T7] , inhibition at 1 µM read as ≤ 35%

Notebook: CCOc1cc(C(=O)N[C@H]2CC[C@@H](O)CC2)ccc1Nc1cc2c(cn1)N(C)C(=O)c1ccccc1N2C [Compound T63] , inhibition at 1 µM read as ≤ 35%

Notebook: CCOc1cc(C(=O)N2CC[C@@H](N3CCN(C)CC3)C2)ccc1Nc1cc2c(cn1)N(C)C(=O)c1ccccc1N2C1CC1 [Compound T68] , inhibition at 1 µM read as ≤ 35%

Notebook: CN1CCN([C@@H]2CCN(C(=O)c3ccc(Nc4cc5c(cn4)N(C)C(=O)c4ccccc4N5C)c(F)c3)C2)CC1 [Compound T69] , inhibition at 1 µM read as ≤ 35%
